Test: Antiproliferative activity against human NCI-H1299 cells assessed as reduction in cell viability incubated for 72 hrs by MTT assay
Type: functional, cell-based
Settings: NCI-H1299, 72 h
readout.name: pIC50
When answering, recall that pIC50 equals minus log10 of the concentration in mol/L, and write that number alone.

O=c1[nH]cc(F)c(=O)[nH]1; 4.38

Pending compound:
Which pIC50 value belongs to Cc1nn(C)c(Oc2ccc(OC(F)(F)F)cc2)c1/C=N\OCCCCCCOc1cc2oc(=O)cc(C)c2cc1Cl ?
4.92

Every entry's value here was drawn from ChEMBL document CHEMBL4665626.
